assay: Kinetic solubility
assayConditions: kinetic from dmso stock
Please use TRUE whenever solubility is not below 200 µM, and FALSE whenever it is.

Answered cases to consult:
| compound | labelClass |
| --- | --- |
| N#C[C@@H]1CSCN1C(=O)CNC(=O)c1ccnc2ccc(N3CCC4(CC3)OCCO4)cc12 [Example 228] | TRUE |
| N#C[C@@H]1CSCN1C(=O)CNC(=O)c1ccnc2ccc(N3CC4(CC4)C[C@@H]3CF)cc12 [Example 58] | FALSE |
| N#C[C@@H]1CSCN1C(=O)CNC(=O)c1ccnc2ccc(N3CCOCC34CCC4)cc12 [Example 104] | TRUE |
| N#C[C@@H]1CSCN1C(=O)CNC(=O)c1ccnc2ccc(N3CCCC4(CC4)C3)cc12 [Example 46] | FALSE |

// next entry
(Q) Textbook exercise: given the entry N#C[C@@H]1CSCN1C(=O)CNC(=O)c1ccnc2ccc(N3CCC4(CCOCC4)CC3)cc12 [Example 162] , state whether its solubility is greater than or equal to 200 µM.
(A) FALSE
